Biological target: UniProt Q16637
Sequence (Q16637 whole entry): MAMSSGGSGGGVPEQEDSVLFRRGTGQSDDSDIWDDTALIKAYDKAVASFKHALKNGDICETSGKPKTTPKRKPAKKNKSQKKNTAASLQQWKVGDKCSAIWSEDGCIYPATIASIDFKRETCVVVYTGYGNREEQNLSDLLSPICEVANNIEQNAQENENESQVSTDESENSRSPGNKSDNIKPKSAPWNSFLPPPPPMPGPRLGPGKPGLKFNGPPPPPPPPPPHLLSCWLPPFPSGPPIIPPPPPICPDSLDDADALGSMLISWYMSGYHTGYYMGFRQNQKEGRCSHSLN
Assay: Activation of SMN expressed in HEK293 cells assessed as rate of induction by SMN2-promotor driven luciferase reporter gene assay relative to basal level
Format: cell-based
Design: concentration or dose not given beside the values
Items are presented alongside their recorded Activity.
endpoint: Activity (%)

INSERT INTO measurements (smiles_representation, endpoint, reported_value) VALUES
  ('NC(=O)C1CCN(c2ncc(-c3ccc4c(c3)OCO4)s2)CC1', 'Activity', 590),
  ('NC(=O)C1CCN(c2nc(-c3ccc4c(c3)OCO4)cs2)CC1', 'Activity', 359),
  ('NC(=O)C1CCN(c2nc(-c3ccc4occc(=O)c4c3)cs2)CC1', 'Activity', 589),
  ('Brc1ccc(-c2csc(N3CCNCC3)n2)cc1', 'Activity', -97),
  ('NC(=O)C1CCN(c2nccc(-c3ccc(Br)cc3)n2)CC1', 'Activity', 387),
  ('CC(C)COc1ccc(-c2csc(N3CCC(C(N)=O)CC3)n2)cc1', 'Activity', 54),
  ('NC(=O)C1CCN(c2nc(-c3ccc(C(F)(F)F)cc3)cs2)CC1', 'Activity', 386),
  ('Cc1ccc(-c2cnc(N3CCC(C(N)=O)CC3)s2)cc1', 'Activity', 609),
  ('CC(=O)c1cccc(-c2csc(N3CCC(C(N)=O)CC3)n2)c1', 'Activity', 356),
  ('COc1ccc(-c2csc(N3CCC(C(N)=O)CC3)n2)cc1OC', 'Activity', 59),
  ('NC(=O)C1CCN(c2ncc(-c3ccc4c(c3)OC(F)(F)O4)s2)CC1', 'Activity', 598),
  ('NC(=O)C1CCN(c2nnc(-c3ccc4c(c3)OCCCO4)s2)CC1', 'Activity', 257),
  ('Cn1ccc2cc(-c3csc(N4CCC(C(N)=O)CC4)n3)ccc21', 'Activity', 534),
  ('CN(C)c1cccc(-c2cnc(N3CCC(C(N)=O)CC3)s2)c1', 'Activity', 550),
  ('CC(C)Oc1cccc(-c2ccnc(N3CCC(C(N)=O)CC3)n2)c1', 'Activity', 298),
  ('Brc1ccc(-c2csc(N3CCC(c4nnn[nH]4)CC3)n2)cc1', 'Activity', 67),
  ('Cc1ccc(-c2csc(N3CCC(C(N)=O)CC3)n2)cc1', 'Activity', 439),
  ('COc1cc(-c2csc(N3CCC(C(N)=O)CC3)n2)cc(OC)c1OC', 'Activity', 73),
  ('CN(C)c1cccc(-c2ncnc(N3CCC(C(N)=O)CC3)n2)c1', 'Activity', 200),
  ('NC(=O)C1CCN(c2nc(-c3ccc(Br)cc3)cs2)CC1', 'Activity', 268),
  ('COc1ccc(-c2cnc(N3CCC(C(N)=O)CC3)s2)cc1OC', 'Activity', 209),
  ('CN(C)c1cccc(-c2cnc(N3CCC(C(N)=O)CC3)nc2)c1', 'Activity', 236),
  ('NC(=O)C1CCN(c2nccc(-c3ccc4c(c3)OCCO4)n2)CC1', 'Activity', 364);
